# system_name: T1, CD47 on the CD47-overexpressing breast cancer cell line MCF-7 (UniProt Q08722 19-323, limits assumed)
# T1 construct: whole, on cells; Endogenous CD47 on MCF-7 cells; The positive control used on these cells is an anti-human CD47 antibody; also called CD47 overexpressing tumor cells (MCF-7); MCF-7 cells expressing CD47
# measurement_notes: flow cytometry on MCF-7 cells, 1 µg antibody
value_kind: binding result

- binder: "Hu3A5 (V7) antibody (antibody, V domains shown, Humanized 3A5) VH: QVQLVQSGAEVKKPGASVKVSCKASGYTFTSYWMHWVRQAPGQGLEWMGVIDPSDSYTSYNQKFQGRVTMTVDTSTSTAYMELSSLRSEDTAVYYCARGGKRAMDYWGQGTTVTVSS VL: DVVMTQSPDSLAVSLGERATINCKSSQSLVHSNGNTYLHWYQQKPGQPPKLLIYKVSNRFSGVPDRFSGSGSGTDFTLTISSLQAEDVAVYFCSQSTHVPFTFGGGTKLEIK"
  observed_value: "binds"
- binder: "Hu3A5 (V4) antibody (antibody, V domains shown, Humanized 3A5) VH: EVQLVQSGAEVKKPGASVKVSCKASGYTFTSYWMHWMRQAPGQGLEWIGVIDPSDSYTSYNQKFQGRVTLTVDTSTSTAYMELSSLRSEDTAVYYCARGGKRAMDYWGQGTTVTVSS VL: DVVMTQSPDSLAVSLGERATINCKSSQSLVHSNGNTYLHWYQQKPGQPPKLLIYKVSNRFSGVPDRFSGSGSGTDFTLTISSLQAEDVAVYYCSQSTHVPFTFGGGTKLEIK"
  observed_value: "binds"
- binder: "Hu3A5 (V12) antibody (antibody, V domains shown, Humanized 3A5) VH: EVQLVQSGSELKKPGASVKVSCKASGYTFTSYWMHWMRQAPGQGLEWIGVIDPSDSYTSYNQGFTGRFVLSVDTSVSTAYLQISSLKAEDTAVYYCARGGKRAMDYWGQGTTVTVSS VL: DVVMTQSPDSLAVSLGERATINCKSSQSLVHSNGNTYLHWYQQKPGQPPKLLIYKVSNRFSGVPDRFSGSGSGTDFTLTISSLQAEDVAVYYCSQSTHVPFTFGGGTKLEIK"
  observed_value: "binds"
